Each recorded value in this set is attributed to patent US8153647B2.

Structures can show the parent of a compound that is named as a salt.
metric: melting point (°C)

INSERT INTO measurements (molecule, assay_result) VALUES
  ('COCCCOc1cc(CCC(=O)NC2=NC(=O)C(C)(C)CN2)ccc1-c1ccc(CN2CCC(N(C)C)CC2)cc1.Cl', 132),
  ('COCCCOc1cc(C(C)(C)CC(=O)NC(=N)N)ccc1-c1ccc(CN2CCC(N(C)C)CC2)cc1 (as salt: HCl)', 105.5);

[a] COCCCOc1cc(CCC(=O)NC(=N)NCCc2ccccn2)ccc1-c1ccc(CN2CCC(N(C)C)CC2)cc1 (as salt: HCl)
[b] COCCCOc1cc(CCC(=O)NC(=N)N)ccc1-c1ccc(CN2CCN(C)CC2=O)cc1 (as salt: HCl)
Would you let me know which has the greater melting point value, a or b ? Your choice should be expressed through its label.
a
(a: 128 °C, b: 61.5 °C)

----------
system_tested: Recombinant human renin (Homo sapiens, UniProt P00797)
Sequence (P00797 67-406): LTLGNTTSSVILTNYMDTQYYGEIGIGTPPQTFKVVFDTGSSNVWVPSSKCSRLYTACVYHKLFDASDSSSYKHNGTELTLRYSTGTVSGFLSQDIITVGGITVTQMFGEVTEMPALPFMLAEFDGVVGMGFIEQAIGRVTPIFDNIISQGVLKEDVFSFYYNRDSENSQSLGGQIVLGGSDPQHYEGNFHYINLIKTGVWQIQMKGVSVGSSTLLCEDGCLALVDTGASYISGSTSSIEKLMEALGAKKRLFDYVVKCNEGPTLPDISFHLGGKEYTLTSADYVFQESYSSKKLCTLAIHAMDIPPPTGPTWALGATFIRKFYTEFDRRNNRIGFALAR
assay_method_text: Renin inhibition in a purified system (FRET, synthetic substrate Dabcyl-gaba-IHPFHLVIHT-EDANS)
recorded_conditions: renin 10 nM, substrate 10 μM, 2 h, room temperature, pH 8
From the text: The protocol for the determination in a purified system of the in vitro IC50s of the compounds of the invention is described hereafter. […]
pIC50: −log10 of the molar value. Counter-ions that a name gives are not always drawn.
metric: pIC50

Below: 10 compounds and their reported pIC50.
INSERT INTO results (compound, assay_result) VALUES
  ('CNC(=N)NC(=O)CCc1ccc(-c2ccc(Cl)c(CS(=O)(=O)C(C)(C)C)c2)c(OCCCOC)c1 [Compound 194, hydrochloride]', 7.32),
  ('COCCCOc1cc(C(C)(C)CC(=O)NC(=N)N)ccc1-c1ccc(CN2CCC(N(C)C)CC2)cc1', 8.00),
  ('COCCCOc1cc(CCC(=O)NC(=N)N)ccc1-c1ccc(CN2CCCCC2)cc1 [Compound 13, hydrochloride]', 7.10),
  ('COCCCOc1cc(CCC(=O)NC(=N)N)ccc1-c1ccc(CN2CCN(C)C2=O)cc1', 7.28),
  ('COCCCOc1cc(CCC(=O)NC(=N)NCCc2ccccn2)ccc1-c1ccc(CN2CCC(N(C)C)CC2)cc1', 7.00),
  ('CCCCNC(=N)NC(=O)CCc1ccc(-c2ccc(CN3CCN(CC(=O)N(C)C)CC3)cc2)c(OCCCOC)c1', 7.15),
  ('CCCCNC(=N)NC(=O)CCc1ccc(-c2ccc(CNCC(c3ccccc3)N(C)C)cc2)c(OCCCOC)c1 (centres unmarked)', 6.84),
  ('COCCCOc1cc(CCC(=O)NC(=N)N)ccc1-c1ccc(CN2CCC(N(C)C)CC2)cc1 [Compound 2, hydrochloride]', 7.72),
  ('COCCCOc1cc(CCC(=O)NC(=N)N)ccc1-c1ccc(CN2CCN(C)CC2=O)cc1', 7.38),
  ('COCCCOc1cc(CCC(=O)NC(=N)N)ccc1-c1nccs1', 6.90);

[a] COCCCOc1cc(CCC(=O)NC(=N)N)ccc1-c1cccnc1 [Compound 21, hydrochloride]
[b] COCCCOc1cc(CCC(=O)NC(=N)N)ccc1-c1cccc(CN2CCCCC2=O)c1
Would you let me know which has the greater pIC50 value, a or b ? Your choice should be expressed through its label.
b

[a] CCCNC(=N)NC(=O)CC(C)(C)c1ccc(-c2ccc(C(=O)N3CCN(C)CC3)cc2)c(OCCCOC)c1 [Compound 25, hydrochloride]
[b] COCCCOc1cc(CCC(=O)NC(=N)NCCC(C)C)ccc1-c1ccc(CN2CCC(N(C)C)CC2)cc1
Would you let me know which has the greater pIC50 value, a or b ? Your choice should be expressed through its label.
b
(b: 7.64, a: 6.64)
